I'd appreciate it if you could supply kon values for the items below.
Target: T1, human CTLA-4.ECD-6×His (human, UniProt P16410 36-161)
T1 construct: extracellular domain; also called WBP316.hCTLA-4.ECD-6×His; hCTLA4-His (WT)
T1 sequence: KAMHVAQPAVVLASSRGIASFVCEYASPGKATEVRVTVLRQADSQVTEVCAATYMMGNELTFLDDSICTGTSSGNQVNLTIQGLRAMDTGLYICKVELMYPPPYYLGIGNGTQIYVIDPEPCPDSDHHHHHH
Assay: SPR, antibody captured on anti-human Fc, CTLA-4.ECD-6×His as analyte, 1:1 fit
One number for each entry, in M⁻¹ s⁻¹.

W3162-1.154.8 xAb.IgG1 (antibody, V domains shown, Chimeric: rat variable regions fused with constant region of human antibody (label xAb.IgG1)) VH: EVQLQQSGPEAGRPGSSVKISCKASGYTFTNYFMNWVKQSPGQGLEWIGRVDPENGRADYAEKFKKKATLTADTTSNTAYIHLSSLTSEDTATYFCARRAMDNYGFAYWGQGTLVTVSS VL: EIMLTQSPTIMAASLGEKITITCSANSSLSYMYWFQQKSGASPKLWVHGTSNLASGVPDRFSGSGSGTSYYLTINTMEAEDAATYFCHHWSNTQWTFGGGTKLELK : 1.85e+06
W3162_1.145.10-z7-uAb.IgG1K (antibody, V domains shown, Humanized; label says IgG1K; also called W145) VH: EVQLVESGGGLVQPGGSLRLSCAASDLTFSNYDMAWVRQAPGKGLEWVASISPSGGNTYYRDSVKGRFTISRDNAKNSLYLQMNSLRAEDTAVYYCARHLWFAYWGQGTLVTVSS VL: DIQMTQSPSSLSASVGDRVTITCQASQDIGSNLIWFQQKPGKAPKPMIYYATHLADGVPSRFSGSRSGTDYTLTISSLQPEDFATYYCLQYKQYPRTFGGGTKVEIK : 7.37e+06
W3162-1.146.19 xAb.IgG1 (antibody, V domains shown, Chimeric: rat variable regions fused with constant region of human antibody (label xAb.IgG1)) VH: EVQLQESGPGLVKPSQSLSLTCSVTYHTITSGYDWTWIRKFPGNQMEWMGYISYSGNTNYNPSLKSRISITRDTSKNQFFLHLNSVTSEDTATYYCASMMVPHYYVMDAWGQGASVTVSS VL: DVVLTQTPPTSSATIGQSVSISCRSSQSLLNSDGNTYLYWYLQRPSQSPQLLIYLVSKLGSGVPNRFSGSGSGTDFTLKISGVEAEDLGLYYCVQGTHDPWTFGGGTKLELK : 709000

Give measured kon for every item shown.
1. W3162-1.145.10 xAb.IgG1 (antibody, V domains shown, Chimeric: rat variable regions fused with constant region of human antibody (label xAb.IgG1)) VH: EVQLVESGGGLVQPGRSLKLSCAASDLTFSNYDMAWVRQTPTKGLEWVASISPNGGNTYYRDSVKGRFTVSRDNAKNSLYLQMDSLRSEDTATYYCARHLWFAYWGQGTLVTVSS VL: DIQMTQSPSSMSASLGDRVTISCQASQDIGSNLIWFQQKPGKSPRPMIYYATHLADGVPSRFSGSRSGSDYSLTISSLESEDVADYHCLQYKQYPRTFGGGTKLELK
2. W3162-1.146.19-z12-uAb.IgG1K (antibody, V domains shown, Humanized; label says IgG1K) VH: QVQLQESGPGLVKPSETLSLTCSVTYHTITSGYDWTWIRKPPGKGMEWIGYISYSGNTNYNPSLKSRVTISRDTSKNQFFLKLSSVTAADTAVYYCASMMVPHYYVMDAWGQGTLVTVSS VL: DIVMTQTPLSLSVTPGQPASISCRSSQSLLNSDGNTYLYWYLQKPGQSPQLLIYLVSKLGSGVPNRFSGSGSGTDFTLKISRVEAEDVGVYYCVQGTHDPWTFGGGTKVEIK
3. W3162_1.154.8-z35-uAb.IgG1K (antibody, V domains shown, Humanized; label says IgG1K) VH: QVQLVQSGAEVKKPGSSVKVSCKASGYTFTNYFMNWVRQAPGQGLEWMGRVDPEQGRADYAEKFKKRVTITADKSTSTAYMELSSLRSEDTAVYYCARRAMDNYGFAYWGQGTLVTVSS VL: EIVLTQSPDFQSVTPKEKVTITCSANSALSYMYWYQQKPDQSPKLWVHGTSNLASGVPSRFSGSGSGTDFTLTINSLEAEDAATYYCHHWSNTQWTFGGGTKVEIK

Given back:
7.93e+06
206000
1.23e+06
